Would you mind telling me the reported selectivity ratio of each entry?
- protocolText: Selectivity index, ratio of CC50 for mock-infected human MT4 cells to EC50 for human HIV-1 3B harboring RES056 mutant infected in human MT4 cells
- Assay type: toxicity, cell-based
- statedConditions: MT4 cells (mock-infected for CC50, HIV-1-infected for EC50)

The recorded selectivity ratio for CC(Sc1nc2cnc(Cl)nc2n1-c1cccc2ccccc12)C(=O)Nc1ccc(C(N)=O)cc1Br (stereo not given) is < 1

The recorded selectivity ratio for `O=C(CSc1nc2cnc(Cl)nc2n1-c1ccc(C2CC2)c2ccccc12)Nc1ccc(C(F)(F)F)cc1` is < 1

The recorded selectivity ratio for CC(Sc1nc2cnc(Cl)nc2n1-c1cccc2ccccc12)C(=O)Nc1ccc(C(N)=O)cc1Cl (stereo not given) is < 1

The recorded selectivity ratio for CC(Sc1nc2cnc(Cl)nc2n1-c1cccc2ccccc12)C(=O)Nc1ccc(S(N)(=O)=O)cc1Cl (stereo not given) is < 1

The recorded selectivity ratio for CC(Sc1nc2cnc(Cl)nc2n1-c1cccc2ccccc12)C(=O)Nc1ccc(S(N)(=O)=O)cc1Br (stereo not given) is < 1

The recorded selectivity ratio for CC(Sc1nc2cnc(Cl)nc2n1-c1ccc(C2CC2)c2ccccc12)C(=O)Nc1ccc(S(N)(=O)=O)cc1Cl (stereo not given) is ≤ 3

The recorded selectivity ratio for CC(Sc1nc2cnc(Cl)nc2n1-c1ccc(C2CC2)c2ccccc12)C(=O)Nc1ccc(S(N)(=O)=O)cc1Br (stereo not given) is 1

The recorded selectivity ratio for `NC(=O)c1ccc(NC(=O)CSc2nc3cnc(Cl)nc3n2-c2cccc3ccccc23)c(Cl)c1` is < 1

The recorded selectivity ratio for `CCOC(=O)c1ccc(NC(=O)CSc2nc3cnc(Cl)nc3n2-c2cccc3ccccc23)c(Br)c1` is < 1

The recorded selectivity ratio for `COC(=O)c1ccc(NC(=O)CSc2nc3cnc(Cl)nc3n2-c2cccc3ccccc23)c(Br)c1` is < 1

The recorded selectivity ratio for CC(Sc1nc2cnc(Cl)nc2n1-c1ccc(C2CC2)c2ccccc12)C(=O)Nc1ccc(C(N)=O)cc1Br (stereo not given) is 10

The recorded selectivity ratio for `NC(=O)c1ccc(NC(=O)CSc2nc3cnc(Cl)nc3n2-c2cccc3ccccc23)c(Br)c1` is < 1

The recorded selectivity ratio for `NC(=O)c1ccc(NC(=O)CSc2nc3cnc(Cl)nc3n2-c2cccc3ccccc23)cc1` is < 1

The recorded selectivity ratio for `NS(=O)(=O)c1ccc(NC(=O)CSc2nc3cnc(Cl)nc3n2-c2cccc3ccccc23)cc1` is < 1

The recorded selectivity ratio for `NS(=O)(=O)c1ccc(NC(=O)CSc2nc3cnc(Cl)nc3n2-c2ccc(C3CC3)c3ccccc23)cc1` is < 1

* * *

Would you mind telling me the reported EC50 of each entry?
- Test system: Human immunodeficiency virus 1
- protocolText: Antiviral activity against human HIV-1 3B infected in human MT4 cells assessed as protection from virus-induced cytopathic effect measured 5 days post infection by MTT assay
- Type: functional, organism-based
- statedConditions: Human immunodeficiency virus 1, 3B, MT4, 120 h
Unit nM implied. Number only.

The recorded EC50 for CC(Sc1nc2cnc(Cl)nc2n1-c1cccc2ccccc12)C(=O)Nc1ccc(C(N)=O)cc1Cl (stereo not drawn) is 2730

The recorded EC50 for CC(Sc1nc2cnc(Cl)nc2n1-c1cccc2ccccc12)C(=O)Nc1ccc(C(N)=O)cc1Br (stereo not drawn) is 1860

The recorded EC50 for CC(Sc1nc2cnc(Cl)nc2n1-c1cccc2ccccc12)C(=O)Nc1ccc(S(N)(=O)=O)cc1Cl (stereo not drawn) is 1070

The recorded EC50 for CC(Sc1nc2cnc(Cl)nc2n1-c1cccc2ccccc12)C(=O)Nc1ccc(S(N)(=O)=O)cc1Br (stereo not drawn) is 780

The recorded EC50 for `NC(=O)c1ccc(NC(=O)CSc2nc3cnc(Cl)nc3n2-c2cccc3ccccc23)c(Cl)c1` is 4560

The recorded EC50 for `CC(C)Nc1cccnc1N1CCN(C(=O)c2cc3cc(NS(C)(=O)=O)ccc3[nH]2)CC1` is 38.3

The recorded EC50 for `CCOC(=O)c1ccc(NC(=O)CSc2nc3cnc(Cl)nc3n2-c2cccc3ccccc23)c(Br)c1` is 3430

* * *

- Test system: Human immunodeficiency virus 1
- protocolText: Antiviral activity against human HIV-1 3B harboring reverse transcriptase Y181C mutant infected in human MT4 cells assessed as protection from virus-induced cytopathic effect measured 5 days post infection by MTT assay
- Assay type: functional, organism-based
- statedConditions: Human immunodeficiency virus 1, 3B, MT4, 120 h
quantityMeasured: EC50 (nM)
Unit nM implied. Number only.

The recorded EC50 for `Cc1cc(C#N)cc(C)c1Oc1nc(Nc2ccc(C#N)cc2)nc(N)c1Br` is 15

* * *

- protocolText: Selectivity index, ratio of CC50 for mock-infected human MT4 cells to EC50 for human HIV-1 3B harboring F227L/V106A double mutant infected in human MT4 cells
- Format: toxicity, cell-based
- statedConditions: MT4 cells (mock-infected for CC50, HIV-1-infected for EC50)
quantityMeasured: selectivity ratio
Just the number, please, no unit after it.

The recorded selectivity ratio for `CC(C)Nc1cccnc1N1CCN(C(=O)c2cc3cc(NS(C)(=O)=O)ccc3[nH]2)CC1` is 16

* * *

- protocolText: Selectivity index, ratio of CC50 for mock-infected human MT4 cells to EC50 for human HIV-1 3B infected in human MT4 cells
- Assay type: toxicity, cell-based
- statedConditions: MT4 cells (mock-infected for CC50, HIV-1-infected for EC50)
Would you mind telling me the reported selectivity ratio of each entry?
Just the number, please, no unit after it.

The recorded selectivity ratio for CC(Sc1nc2cnc(Cl)nc2n1-c1cccc2ccccc12)C(=O)Nc1ccc(C(N)=O)cc1Cl (centres undefined) is 9

The recorded selectivity ratio for `NC(=O)c1ccc(NC(=O)CSc2nc3cnc(Cl)nc3n2-c2cccc3ccccc23)c(Br)c1` is 12

* * *

- Test system: Human immunodeficiency virus 1
- protocolText: Antiviral activity against human HIV-1 3B harboring reverse transcriptase E138K mutant infected in human MT4 cells assessed as protection from virus-induced cytopathic effect measured 5 days post infection by MTT assay
- Assay type: functional, organism-based
- statedConditions: Human immunodeficiency virus 1, 3B, MT4, 120 h
quantityMeasured: EC50

The recorded EC50 for CC(Sc1nc2cnc(Cl)nc2n1-c1ccc(C2CC2)c2ccccc12)C(=O)Nc1ccc(C(N)=O)cc1Br (stereo unspecified) is ≥ 65.1 µM

* * *

- protocolText: Selectivity index, ratio of CC50 for mock-infected human MT4 cells to EC50 for human HIV-1 3B infected in human MT4 cells
- Type: toxicity, cell-based
- statedConditions: MT4 cells (mock-infected for CC50, HIV-1-infected for EC50)
Would you mind telling me the reported selectivity ratio of each entry?
Just the number, please, no unit after it.

The recorded selectivity ratio for `NS(=O)(=O)c1ccc(NC(=O)CSc2nc3cnc(Cl)nc3n2-c2cccc3ccccc23)cc1` is 23

The recorded selectivity ratio for CC(Sc1nc2cnc(Cl)nc2n1-c1cccc2ccccc12)C(=O)Nc1ccc(C(N)=O)cc1Br (configuration not stated) is 12

The recorded selectivity ratio for `NC(=O)c1ccc(NC(=O)CSc2nc3cnc(Cl)nc3n2-c2cccc3ccccc23)c(Cl)c1` is 5

The recorded selectivity ratio for `CCOC(=O)c1ccc(NC(=O)CSc2nc3cnc(Cl)nc3n2-c2cccc3ccccc23)c(Br)c1` is 32

The recorded selectivity ratio for CC(Sc1nc2cnc(Cl)nc2n1-c1ccc(C2CC2)c2ccccc12)C(=O)Nc1ccc(C(N)=O)cc1Br (configuration not stated) is 8

The recorded selectivity ratio for CC(Sc1nc2cnc(Cl)nc2n1-c1cccc2ccccc12)C(=O)Nc1ccc(S(N)(=O)=O)cc1Br (configuration not stated) is 24

The recorded selectivity ratio for CC(Sc1nc2cnc(Cl)nc2n1-c1ccc(C2CC2)c2ccccc12)C(=O)Nc1ccc(S(N)(=O)=O)cc1Br (configuration not stated) is 6

The recorded selectivity ratio for CC(Sc1nc2cnc(Cl)nc2n1-c1ccc(C2CC2)c2ccccc12)C(=O)Nc1ccc(S(N)(=O)=O)cc1Cl (configuration not stated) is 4

The recorded selectivity ratio for `NS(=O)(=O)c1ccc(NC(=O)CSc2nc3cnc(Cl)nc3n2-c2ccc(C3CC3)c3ccccc23)cc1` is 6

The recorded selectivity ratio for `COC(=O)c1ccc(NC(=O)CSc2nc3cnc(Cl)nc3n2-c2cccc3ccccc23)c(Br)c1` is 94

The recorded selectivity ratio for CC(Sc1nc2cnc(Cl)nc2n1-c1cccc2ccccc12)C(=O)Nc1ccc(S(N)(=O)=O)cc1Cl (configuration not stated) is 20

* * *

- Test system: Human immunodeficiency virus 1
- protocolText: Antiviral activity against human HIV-1 3B infected in human MT4 cells assessed as protection from virus-induced cytopathic effect measured 5 days post infection by MTT assay
- Format: functional, organism-based
- statedConditions: Human immunodeficiency virus 1, 3B, MT4, 120 h
quantityMeasured: EC50

The recorded EC50 for `COC(=O)c1ccc(NC(=O)CSc2nc3cnc(Cl)nc3n2-c2ccc(C3CC3)c3ccccc23)c(Br)c1` is > 153 µM

The recorded EC50 for CC(Sc1nc2cnc(Cl)nc2n1-c1ccc(C2CC2)c2ccccc12)C(=O)Nc1ccc(C(N)=O)cc1Cl (centres undefined) is > 25.1 µM

The recorded EC50 for `NC(=O)c1ccc(NC(=O)CSc2nc3cnc(Cl)nc3n2-c2ccc(C3CC3)c3ccccc23)c(Br)c1` is > 11.2 µM

The recorded EC50 for `NC(=O)c1ccc(NC(=O)CSc2nc3cnc(Cl)nc3n2-c2ccc(C3CC3)c3ccccc23)c(Cl)c1` is > 6.39 µM
